experimental_details: Cytotoxicity in H9c2 cells (CCK-8)
Format: cell-based
applied_conditions: rat, H9c2 cells (ATCC CRL-1446); H9c2 cells; 24 hours
Structures can show the parent of a compound that is named as a salt.
reported_property: IC50 at 24 h (µM)
Field format: number, assumed µM, no unit text.

{"compound": "N=C(N)c1ccc(-c2ccc3[nH]cc(-c4nc5ccc(C(=N)N)cc5[nH]4)c3c2)cc1 [Compound U, acetate salt]", "IC50 at 24 h (µM)": 100}

Exam item: Entry under review: N=C(N)c1ccc(-c2ccc(-c3ccc(-c4ccc(C(=N)N)s4)o3)o2)s1 [Compound Q] . Reported IC50 at 24 h?
Marked response: 50

Exam item: # query: IC50 at 24 h of entry N=C(N)c1ccc(-c2ccc(-c3ccc(-c4ccc(C(=N)N)o4)o3)o2)cc1 [Compound M]
Marked response: 100
